# assay: Steady-state pharmacokinetics of momelotinib and metabolite GS-644603 (LC–MS/MS, noncompartmental)
# Format: in vivo, human
# protocol-conditions: human, in vivo, oral; momelotinib analyte; day 15 of cycle 1; momelotinib 200 mg QD + erlotinib; n = 2; median (Q1, Q3)
quantity-kind: half-life (h)
Give just the number in h; leave the unit off.

Req: Field request: half-life | item: N#CCNC(=O)c1ccc(-c2ccnc(Nc3ccc(N4CCOCC4)cc3)n2)cc1
Resp: 10.2

---

# assay: Steady-state pharmacokinetics of momelotinib and metabolite GS-644603 (LC–MS/MS, noncompartmental)
# Format: in vivo, human
# protocol-conditions: human, in vivo, oral, momelotinib analyte; day 15 of cycle 1; momelotinib 100 mg QD + erlotinib; n = 2; mean (%CV)
quantity-kind: Cmax (ng/mL)
Give just the number in ng/mL; leave the unit off.

Req: Field request: Cmax | item: N#CCNC(=O)c1ccc(-c2ccnc(Nc3ccc(N4CCOCC4)cc3)n2)cc1 [momelotinib]
Resp: 528
